# System: ECU
# ASSAY_DETAILS: qHTS profiling for inhibitors of Plasmodium falciparum proliferation (AID 504749); note: nearly all actives have a fitted effect of over 60% in size
# CONDITION_INFO: P. falciparum in erythrocytes, SYBR Green DNA, 72 h; series mostly up to 28.7 µM
Records with an inconclusive call do not appear. Calls of active or inactive are those of the source. Calls come from the whole dose curve; as a rule, active = well fitted inhibition curve with a large enough effect; inconclusive = small, poorly fitted or top-dose-only effect; inactive = flat fitted curve, though single readings scatter.
Returns: one label drawn from 1 for active, -1 for inactive

Reference set (3 entries):
OC(CN1CCC(Cc2ccc(F)cc2)CC1)c1ccc(Cl)cc1 (stereo unspecified)    1
N=c1nc(N2CCCCC2)cc(N)n1O    -1
Nc1nc2ccc(OC(F)(F)F)cc2s1    -1

IN: Per the assay record, what outcome was assigned to CC(C)NCC(O)COc1ccc(COCCOC(C)C)cc1 (stereo unspecified) ?
OUT: -1

IN: Per the assay record, what outcome was assigned to Clc1cccc(Cl)c1NC1=NCCN1 ?
OUT: -1

IN: Per the assay record, what outcome was assigned to O=C1CCC(N2C(=O)c3ccccc3C2=O)C(=O)N1 (stereo unspecified) ?
OUT: -1

IN: Per the assay record, what outcome was assigned to Cc1cn[nH]c1 ?
OUT: -1

IN: Per the assay record, what outcome was assigned to Oc1ccc(C2CNCCc3c2cc(O)c(O)c3Cl)cc1 (stereo unspecified) ?
OUT: -1

IN: Per the assay record, what outcome was assigned to O=NN(CCCl)C(=O)NCCCl ?
OUT: -1

###

# ASSAY_DETAILS: Quantitative High-Throughput drug screen in 47 multiple myeloma cell lines against the NCATS MIPE library collection: JIM1_ECACC cell viability assay (AID 1918964)
# CONDITION_INFO: JIM1 myeloma viability, CellTiter-Glo ATP luminescence, 48 h; series mostly up to 45.8 µM
Inconclusive results are not listed. Calls of active or inactive are those of the source. Calls come from the whole dose curve; as a rule, active = well fitted cell-killing curve with a large enough effect; inconclusive = small, poorly fitted or top-dose-only effect, or effect the other way; inactive = no such curve, though single readings can be large or run the other way.
Returns: one label drawn from active, inactive

CCC(C)(C)C(=O)O[C@H]1C[C@@H](C)C=C2C=C[C@H](C)[C@H](CC[C@@H]3C[C@@H](O)CC(=O)O3)[C@H]21    active
COc1cc(F)c(F)c(Nc2ccc(I)cc2F)c1NS(=O)(=O)C1(C[C@H](O)CO)CC1    active
CCOC(=O)N1CCC(=C2c3ccc(Cl)cc3CCc3cccnc32)CC1    inactive
NC(=O)c1cnccn1    inactive
Cc1cccc(-c2[nH]c(C(C)(C)C)nc2-c2ccc3nccnc3c2)n1    active

Continue with the compound presented below.
IN: Per the assay record, what outcome was assigned to O=c1[nH]cnc2[nH]ncc12 ?
OUT: inactive

###

# ASSAY_DETAILS: P-glycoprotein substrates identified in KB-8-5-11 adenocarcinoma cell line, qHTS therapeutic library screen (AID 1346987); note: nearly all actives have a fitted effect of over 65% in size
# CONDITION_INFO: KB-8-5-11 (P-gp overexpressing) viability, CellTiter-Glo, 72 h; series mostly up to 44.5 µM
Records with an inconclusive call do not appear. Active and inactive are the calls of the source. Calls come from the whole dose curve; as a rule, active = well fitted inhibition curve with a large enough effect; inconclusive = small, poorly fitted or top-dose-only effect; inactive = flat fitted curve, though single readings scatter.
Returns: one label drawn from yes (1) = active, no (0) = inactive

Reference set (4 entries):
CCCn1c(=O)c2[nH]c(C34CC5CC3C[C@@H](C5)C4)nc2n(CCC)c1=O    no (0)
COc1ccc2nc(S(=O)Cc3ncc(C)c(OC)c3C)[nH]c2c1 (stereo unspecified)    no (0)
CCCc1nn(C)c2c(=O)[nH]c(-c3cc(S(=O)(=O)N4CCN(C)CC4)ccc3OCC)nc12    yes (1)
Cc1c(CCOc2ccc(C(=O)O)cc2)c2cc(Cl)ccc2n1C(c1ccccc1)c1ccccc1    no (0)

IN: Per the assay record, what outcome was assigned to O=C1CCC(N2C(=O)c3ccccc3C2=O)C(=O)N1 (stereo unspecified) ?
OUT: no (0)

IN: Per the assay record, what outcome was assigned to CNCc1ccc(-c2[nH]c3cc(F)cc4c3c2CCNC4=O)cc1 ?
OUT: no (0)

IN: Per the assay record, what outcome was assigned to CC(C)OC(=O)C1=CN(C(=O)c2ccc(F)c(F)c2)CC(C)(C)c2c1[nH]c1ccccc21 ?
OUT: no (0)

IN: Per the assay record, what outcome was assigned to CCN(CC)CCCC(C)Nc1ccnc2cc(Cl)ccc12 (stereo unspecified) ?
OUT: no (0)

IN: Per the assay record, what outcome was assigned to NCCc1ccc(O)c(O)c1 ?
OUT: no (0)

IN: Per the assay record, what outcome was assigned to Nc1nccc(-c2ccc3noc(-c4ccc(Cl)cc4)c3c2)n1 ?
OUT: no (0)

IN: Per the assay record, what outcome was assigned to C[C@]1(c2nc3c(C(N)=O)cccc3[nH]2)CCCN1 ?
OUT: no (0)
